Attribution: patent US20210277020A1

Target sequence: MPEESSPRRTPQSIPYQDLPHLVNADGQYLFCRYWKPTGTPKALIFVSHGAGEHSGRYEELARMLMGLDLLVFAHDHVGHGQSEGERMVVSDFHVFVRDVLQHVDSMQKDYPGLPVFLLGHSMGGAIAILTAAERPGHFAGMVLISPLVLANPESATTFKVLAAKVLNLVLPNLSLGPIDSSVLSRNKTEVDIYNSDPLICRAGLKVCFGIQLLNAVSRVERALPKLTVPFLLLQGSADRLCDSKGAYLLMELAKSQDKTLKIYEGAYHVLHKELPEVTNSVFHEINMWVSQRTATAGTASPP
recorded.metric: IC50 (nM)

* O=C1CO[C@H]2CCN(C(=O)N3CC(CNC(c4ccc(F)cc4)C(F)(F)F)C3)C[C@H]2N1 (stereo partly shown) | 264
* O=C1CO[C@H]2CCN(C(=O)N3CC(NC(=O)c4ccc(F)cc4Cl)C3)C[C@H]2N1 | 4600
* O=C1CO[C@H]2CCN(C(=O)N3CC(C#Cc4ccc(Cl)cc4Cl)C3)C[C@H]2N1 | 5
* Cc1ccccc1C#CC1CCN(C(=O)N2CC[C@@H]3OCC(=O)N[C@@H]3C2)CC1 | 31
* O=C1CO[C@H]2CCN(C(=O)N3CC(CNC(c4ccccc4Cl)C(F)(F)F)C3)C[C@H]2N1 (stereo partly shown) | 12

A. O=C1CO[C@H]2CCN(C(=O)N3CC([S+]([O-])c4ccc(C(F)(F)F)cc4Cl)C3)C[C@H]2N1 (single isomer, unassigned) [Example 147]
B. O=C1CO[C@H]2CCN(C(=O)N3CC(C#Cc4ccc(Cl)s4)C3)C[C@H]2N1
input: Pick one, A or B : lowest reported IC50. Let me know the label of the one you choose.
output: B
